test system: Digitaria sanguinalis; test: Herbicidal activity against Digitaria sanguinalis (hairy crabgrass) assessed as growth inhibition rate at 100 mg/L 7 days post compound treatment; assay type: functional; settings: 168 h, read-out: GI
observation_type: inhibition of growth at 100 µg/mL (%)
Give a bare numeral; the unit % is implied.

// known answers, use as guide
{"compound": "C[C@@H]1[C@H](c2ccc(OCC(F)(F)F)nc2)OC(=S)N1C(=O)NC1CCCCC1 (relative stereo)", "unit_tag": "%", "inhibition of growth at 100 µg/mL": 70}
{"compound": "CCOc1ccc([C@@H]2OC(=S)N(C(=O)Nc3ccccc3OCC)[C@@H]2C)cn1 (relative stereo)", "unit_tag": "%", "inhibition of growth at 100 µg/mL": 80}
{"compound": "CCOc1ccccc1NC(=O)N1C(=S)O[C@@H](c2ccc(Cl)nc2)[C@H]1C (relative stereo)", "unit_tag": "%", "inhibition of growth at 100 µg/mL": 80}

Note to self: inhibition of growth at 100 µg/mL recorded for C[C@@H]1[C@H](c2ccncc2)OC(=S)N1C(=O)Nc1ccccc1[N+](=O)[O-] (relative stereo) was 70

The measured inhibition of growth at 100 µg/mL associated with C[C@@H]1[C@H](c2ccncc2)OC(=S)N1C(=O)NC1CCCCC1 (relative stereo) reads 80

// C[C@@H]1[C@H](c2ccccn2)OC(=S)N1C(=O)NC1CCCCC1 (relative stereo) : inhibition of growth at 100 µg/mL value = 70

====

system: Cucumis sativus; assay: Herbicidal activity against Cucumis sativus (cucumber) assessed as growth inhibition rate at 100 mg/L 7 days post compound treatment; assay type: functional; conditions: 168 h, read-out: GI
observation_type: inhibition of growth at 100 µg/mL (%)
Give the quantity in %, number only.

Illustrative cases are given below, each with its answer.
{"molecule": "CCOc1ccccc1NC(=O)N1C(=S)O[C@@H](c2ccc(Cl)nc2)[C@H]1C (relative stereo)", "observation_type": "inhibition of growth at 100 µg/mL", "unit_tag": "%", "measurement": 90}
{"molecule": "C[C@@H]1[C@H](c2ccncc2)OC(=S)N1C(=O)Nc1ccccc1[N+](=O)[O-] (relative stereo)", "observation_type": "inhibition of growth at 100 µg/mL", "unit_tag": "%", "measurement": 20}
{"molecule": "C[C@@H]1[C@H](c2ccncc2)OC(=S)N1C(=O)NC1CCCCC1 (relative stereo)", "observation_type": "inhibition of growth at 100 µg/mL", "unit_tag": "%", "measurement": 20}
{"molecule": "CCOc1ccc([C@@H]2OC(=S)N(C(=O)Nc3ccccc3OCC)[C@@H]2C)cn1 (relative stereo)", "observation_type": "inhibition of growth at 100 µg/mL", "unit_tag": "%", "measurement": 0}

Given item C[C@@H]1[C@H](c2ccccn2)OC(=S)N1C(=O)NC1CCCCC1 (relative stereo) , the value recorded as its inhibition of growth at 100 µg/mL is 0

Value of measured inhibition of growth at 100 µg/mL for the entry C[C@@H]1[C@H](c2ccc(OCC(F)(F)F)nc2)OC(=S)N1C(=O)NC1CCCCC1 (relative stereo) : 40

====

tested on: Echinochloa crus-galli; test: Herbicidal activity against Echinochloa crus-galli (barnyard grass) assessed as growth inhibition rate at 100 mg/L 7 days post compound treatment; format: functional; conditions: 168 h, read-out: GI
observation_type: inhibition of growth at 100 µg/mL (%)
Give the quantity in %, number only.

Worked examples follow.
{"compound": "CCOc1ccc([C@@H]2OC(=S)N(C(=O)Nc3ccccc3OCC)[C@@H]2C)cn1 (relative stereo)", "observation_type": "inhibition of growth at 100 µg/mL", "measurement": 50}
{"compound": "C[C@@H]1[C@H](c2ccccn2)OC(=S)N1C(=O)NC1CCCCC1 (relative stereo)", "observation_type": "inhibition of growth at 100 µg/mL", "measurement": 70}
{"compound": "C[C@@H]1[C@H](c2ccncc2)OC(=S)N1C(=O)NC1CCCCC1 (relative stereo)", "observation_type": "inhibition of growth at 100 µg/mL", "measurement": 90}
{"compound": "C[C@@H]1[C@H](c2ccncc2)OC(=S)N1C(=O)Nc1ccccc1[N+](=O)[O-] (relative stereo)", "observation_type": "inhibition of growth at 100 µg/mL", "measurement": 60}
{"compound": "CCOc1ccccc1NC(=O)N1C(=S)O[C@@H](c2ccc(Cl)nc2)[C@H]1C (relative stereo)", "observation_type": "inhibition of growth at 100 µg/mL", "measurement": 90}

Continue with the next compound.
Field inhibition of growth at 100 µg/mL (system: Echinochloa crus-galli) for entry C[C@@H]1[C@H](c2ccc(OCC(F)(F)F)nc2)OC(=S)N1C(=O)NC1CCCCC1 (relative stereo) = 80
